B1: STK38L (parent)
chain: RQLAYSTVGTPDYIAPEVFMQTGY

variants of: B1; test: protein stability index of a GFP-peptide fusion (GPS, HEK-293T) (PSI 1-6); higher = more stable; details: c terminus: a fixed tail appended;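 note: lentivirally expressed fusions sorted by FACS into six bins by GFP to DsRed ratio, PSI derived from sequencing read proportions per bin multiplied by bin number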
Is protein stability index at least 3? Then TRUE. If not, FALSE.

Given the entry T22G , answer whether its protein stability index meets or surpasses 3.
TRUE

hey, is protein stability index for this one >= 3? S6V
FALSE

Could you verify whether the entry S6F shows protein stability index of no less than 3?
FALSE

Quick check: does Y5D have protein stability index greater than or equal to 3?
TRUE

Threshold query (protein stability index >= 3) on G9S
FALSE

Check this variant for protein stability index at or above 3: L3V
FALSE

Check if protein stability index >= 3 (inclusive). Item: G23H
FALSE

Hello, I need to know if R1W has measured protein stability index not below 3. Thanks!
FALSE

Please tell me: is the variant S6P at or over 3 in terms of protein stability index?
FALSE

Entry V18Q : is its protein stability index no less than 3?
TRUE

Does the variant T7C have recorded protein stability index that is 3 or more?
FALSE

Hi, just wondering whether Q21N shows protein stability index of 3 or higher.
FALSE

Reported protein stability index reaches at least 3 for S6R ?
FALSE

Is reported protein stability index greater than or equal to 3 here: M20D
TRUE

Does the reported protein stability index for G9P fall at or above the 3 mark?
FALSE

Has V18T a recorded protein stability index greater than or equal to 3?
FALSE

Assess whether reported protein stability index for I14F sits at 3 or higher.
FALSE

Entry Q2P : is its protein stability index no less than 3?
FALSE

Is reported protein stability index greater than or equal to 3 here: V8G
FALSE

Item I14W with protein stability index of 3 or above?
FALSE

// inclusive: protein stability index at least 3? input: L3E
TRUE

Does P16A have a reported protein stability index of at least 3?
FALSE

Does the reported protein stability index for R1D fall at or above the 3 mark?
FALSE

hey, is protein stability index for this one >= 3? D12K
FALSE

Exam item: decide whether the reported protein stability index for Q2W is at least 3.
FALSE

Reported protein stability index reaches at least 3 for V8W ?
FALSE

Can P11V be said to have protein stability index at or above 3?
FALSE

Dear colleague, could you confirm whether R1Y has protein stability index at or above 3?
FALSE

Has T10S a recorded protein stability index greater than or equal to 3?
FALSE

Check the entry Y24W : does protein stability index equal or exceed 3?
FALSE
